These data points were gathered from PubChem BioAssay.

Assay Name: inhibitors of hydroxyurea-induced Chk1 phosphorylation, primary screen, imaging, HeLa, phospho-Chk1 nuclear intensity (AID 1187); note: test concentration not given here
Study Conditions: hydroxyurea-induced phospho-Chk1 immunofluorescence imaging, higher = more signal
Quantity Measured: z-score
Write the value as a bare number.

Examples with answers:
>  <Compound>
COC(=O)[C@@]1(CCC(=O)OC(C)(C)C)N=C(c2ccc(OCCCO)cc2)O[C@H]1c1ccccc1CN=[N+]=[N-]

>  <Recorded Measurement>
0.0025

$$$$
>  <Compound>
CCC[C@@H]1[C@@H](Sc2ccccc2)[C@@H](C(=O)O)[C@H](c2ccc(C)cc2)N1S(=O)(=O)c1ccc(C)cc1

>  <Recorded Measurement>
0.971

$$$$
>  <Compound>
CCCC[C@H]1OB(O)C[C@H]2C1=C(COC)C[C@H]1C(=O)C=CC(=O)[C@H]12

>  <Recorded Measurement>
-0.434

$$$$
>  <Compound>
CN(C)CCCC[C@@H]1NC(=O)[C@H]2C[C@@H](C(=O)O)[C@@H](c3cccc(OCCO)c3)N2C1=O

>  <Recorded Measurement>
-0.55

$$$$
>  <Compound>
CN(C)C(=O)[C@]1(Cc2ccccc2)N=C(c2ccc(OCCCO)cc2)O[C@@H]1c1ccccc1

>  <Recorded Measurement>
-0.755

$$$$

q: For C=CCC(OC(C)=O)[C@@H]1[C@@H](N(Cc2cc3ccccc3o2)C(=O)Cc2ccc(OC)cc2)c2cc(OCCCO)ccc2N1C(=O)Cc1ccc(OC)cc1 (stereo partly drawn) , what is its reported z-score?
a: 0.799

q: For CC(=O)n1cc(C(O)C2C=CC3C(=O)N(c4ccccc4)C(=O)C3N2Nc2ccccc2F)c2ccccc21 (stereo not drawn) , what is its reported z-score?
a: 0.153

q: For COCCOC(=O)N1C(=O)[C@@]2(c3cc(C#CCCO)ccc31)[C@H](c1ccccc1OCCO)N1[C@H](c3ccccc3)[C@H](c3ccccc3)OC(=O)[C@H]1[C@@H]2C(=O)N1CCc2cc(OC)c(OC)cc2C1 , what is its reported z-score?
a: 0.0652
